Target: Glutamate NMDA receptor; Grin1/Grin2b (Rattus norvegicus, UniProt P35439+Q00960)
Sequence (Q00960 whole entry, other chains not shown): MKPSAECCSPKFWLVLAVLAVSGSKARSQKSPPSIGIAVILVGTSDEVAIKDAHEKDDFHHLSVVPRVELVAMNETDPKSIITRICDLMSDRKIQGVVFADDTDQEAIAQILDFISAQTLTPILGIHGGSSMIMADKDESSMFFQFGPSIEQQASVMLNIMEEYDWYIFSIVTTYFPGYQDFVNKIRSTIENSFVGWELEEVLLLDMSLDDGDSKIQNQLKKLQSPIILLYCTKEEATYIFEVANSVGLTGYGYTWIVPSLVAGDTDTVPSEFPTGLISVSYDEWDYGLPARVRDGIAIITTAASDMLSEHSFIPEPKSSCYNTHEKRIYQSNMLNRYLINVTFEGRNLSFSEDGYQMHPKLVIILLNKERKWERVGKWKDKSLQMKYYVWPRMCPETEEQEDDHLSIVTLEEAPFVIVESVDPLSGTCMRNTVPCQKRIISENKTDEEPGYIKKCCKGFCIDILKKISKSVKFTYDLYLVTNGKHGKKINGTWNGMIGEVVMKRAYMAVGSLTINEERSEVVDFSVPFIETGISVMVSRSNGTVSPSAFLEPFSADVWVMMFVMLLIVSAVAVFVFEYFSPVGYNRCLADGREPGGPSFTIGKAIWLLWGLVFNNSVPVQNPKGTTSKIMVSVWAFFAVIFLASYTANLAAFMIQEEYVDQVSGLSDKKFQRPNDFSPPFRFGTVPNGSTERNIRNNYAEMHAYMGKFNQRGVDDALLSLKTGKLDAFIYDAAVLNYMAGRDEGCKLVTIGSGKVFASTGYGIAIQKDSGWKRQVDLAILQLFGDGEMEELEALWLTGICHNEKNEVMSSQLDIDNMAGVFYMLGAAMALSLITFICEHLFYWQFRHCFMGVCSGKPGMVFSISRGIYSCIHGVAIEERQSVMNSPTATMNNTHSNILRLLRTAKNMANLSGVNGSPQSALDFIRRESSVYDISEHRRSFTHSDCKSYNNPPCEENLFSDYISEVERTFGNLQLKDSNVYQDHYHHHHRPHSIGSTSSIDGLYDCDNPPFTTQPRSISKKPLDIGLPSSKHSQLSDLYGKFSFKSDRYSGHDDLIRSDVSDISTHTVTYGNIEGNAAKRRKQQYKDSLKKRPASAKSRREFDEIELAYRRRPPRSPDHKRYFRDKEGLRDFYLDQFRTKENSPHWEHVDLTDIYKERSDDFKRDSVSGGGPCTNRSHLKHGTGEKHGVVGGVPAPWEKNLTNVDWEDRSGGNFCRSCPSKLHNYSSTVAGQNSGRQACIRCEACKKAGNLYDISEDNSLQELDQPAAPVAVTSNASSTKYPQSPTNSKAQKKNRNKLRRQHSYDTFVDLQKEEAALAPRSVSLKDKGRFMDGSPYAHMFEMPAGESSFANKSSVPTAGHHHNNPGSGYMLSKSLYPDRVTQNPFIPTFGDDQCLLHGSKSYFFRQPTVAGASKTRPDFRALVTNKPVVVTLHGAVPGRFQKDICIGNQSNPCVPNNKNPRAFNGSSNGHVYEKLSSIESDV
Experiment: Antagonist activity at recombinant rat GluN1a/GluN2B expressed in Xenopus laevis oocytes assessed as inhibition of glycine/glutamate-mediated current responses by two-electrode voltage clamp method
OBSERVABLE: pIC50
Field pIC50 (float): negative decimal logarithm of the concentration in molar.

pIC50 reading for Cl.O=C(O)c1cc([C@H]2CCN[C@@H]2C(=O)O)ccc1Cl : 4.54

----------
Biological target: Glutamate NMDA receptor; Grin1/Grin2c (Rattus norvegicus, UniProt P35439+Q00961)
Sequence (Q00961 whole entry, other chains not shown): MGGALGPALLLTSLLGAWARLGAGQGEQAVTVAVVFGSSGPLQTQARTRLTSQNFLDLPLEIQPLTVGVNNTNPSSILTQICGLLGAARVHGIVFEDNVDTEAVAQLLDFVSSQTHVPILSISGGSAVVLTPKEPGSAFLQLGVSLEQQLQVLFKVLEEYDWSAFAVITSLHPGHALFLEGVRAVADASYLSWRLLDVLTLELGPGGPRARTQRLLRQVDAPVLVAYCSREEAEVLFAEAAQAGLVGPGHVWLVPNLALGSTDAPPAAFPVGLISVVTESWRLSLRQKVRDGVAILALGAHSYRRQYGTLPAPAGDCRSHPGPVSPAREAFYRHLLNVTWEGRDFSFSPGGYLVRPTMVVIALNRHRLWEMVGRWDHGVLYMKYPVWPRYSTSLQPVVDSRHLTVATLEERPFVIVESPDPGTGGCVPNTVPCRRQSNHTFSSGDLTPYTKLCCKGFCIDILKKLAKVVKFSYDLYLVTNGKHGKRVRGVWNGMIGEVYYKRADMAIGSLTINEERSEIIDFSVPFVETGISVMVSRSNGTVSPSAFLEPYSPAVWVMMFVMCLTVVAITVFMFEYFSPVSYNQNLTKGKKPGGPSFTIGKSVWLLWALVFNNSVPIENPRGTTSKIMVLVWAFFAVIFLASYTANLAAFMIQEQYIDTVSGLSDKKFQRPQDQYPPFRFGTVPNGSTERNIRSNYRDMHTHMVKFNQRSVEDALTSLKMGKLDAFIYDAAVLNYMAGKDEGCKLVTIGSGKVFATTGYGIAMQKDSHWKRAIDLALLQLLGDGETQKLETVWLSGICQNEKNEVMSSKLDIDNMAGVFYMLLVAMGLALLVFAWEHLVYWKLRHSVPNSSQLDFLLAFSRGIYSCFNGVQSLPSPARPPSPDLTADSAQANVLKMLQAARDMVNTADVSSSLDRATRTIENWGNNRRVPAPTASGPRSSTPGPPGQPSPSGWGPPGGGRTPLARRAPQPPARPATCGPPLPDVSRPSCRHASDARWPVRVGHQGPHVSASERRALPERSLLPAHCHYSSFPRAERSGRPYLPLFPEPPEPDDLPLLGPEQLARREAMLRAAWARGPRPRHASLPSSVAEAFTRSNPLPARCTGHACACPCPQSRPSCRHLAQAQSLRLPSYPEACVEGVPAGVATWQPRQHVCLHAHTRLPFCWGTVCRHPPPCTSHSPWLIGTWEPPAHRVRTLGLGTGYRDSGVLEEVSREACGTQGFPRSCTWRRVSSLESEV
Experiment: Antagonist activity at recombinant rat GluN1a/GluN2C expressed in Xenopus laevis oocytes assessed as inhibition of glycine/glutamate-mediated current responses by two-electrode voltage clamp method
// Ki lookup, one value per entry
Provide only the numeric value, understood in µM.

Cl.O=C(O)c1cc([C@H]2CCN[C@@H]2C(=O)O)ccc1Cl	24

Now look at this entry.
For this compound ( N[C@H](CCCP(=O)(O)O)C(=O)O ), measured Ki is 5.9

----------
Assay: Displacement of [3H]-CGP-39653 from NMDA receptor in Sprague-Dawley rat brain synaptosomes after 60 mins by scintillation counting method
Type: subcellular
pKi: −log10 of the molar value.
Listed next: entries and their corresponding pKi.

Guide cases for pKi, answers given:
O=C(O)[C@H]1NCC[C@@H]1c1cccc(C(F)(F)F)c1	< 4.00
O=C(O)[C@H]1NCC[C@@H]1c1cccc(B(O)O)c1	< 4.00
O=C(O)[C@H]1NCC[C@@H]1c1ccc(O)c(O)c1	4.46
O=C(O)[C@H]1NCC[C@@H]1c1cccc(Cl)c1	< 4.00

Documented pKi of N#Cc1cccc([C@H]2CCN[C@@H]2C(=O)O)c1 : < 4.00

Given item Nc1cccc([C@H]2CCN[C@@H]2C(=O)O)c1 , the value recorded as its pKi is < 4.00

Kindly note the recorded pKi for Cl.O=C(O)c1cc([C@H]2CCN[C@@H]2C(=O)O)ccc1Cl , which is 6.20

# pKi of NC(=O)c1cccc([C@H]2CCN[C@@H]2C(=O)O)c1 = < 4.00

The recorded pKi for Cl.O=C(O)c1cc([C@H]2CCN[C@@H]2C(=O)O)ccc1F is 5.34

----------
Biological target: Glutamate NMDA receptor; Grin1/Grin2c (Rattus norvegicus, UniProt P35439+Q00961)
Test: Antagonist activity at recombinant rat GluN1a/GluN2C expressed in Xenopus laevis oocytes assessed as inhibition of glycine/glutamate-mediated current responses by two-electrode voltage clamp method
OBSERVABLE: pIC50
Value format note: pIC50 is -log10 of concentration (mol/L); just state the number.

The measured pIC50 associated with Cl.O=C(O)c1cc([C@H]2CCN[C@@H]2C(=O)O)ccc1Cl reads 3.96
